Target: Factor X, P00742
Sequence (P00742 whole entry, looked up): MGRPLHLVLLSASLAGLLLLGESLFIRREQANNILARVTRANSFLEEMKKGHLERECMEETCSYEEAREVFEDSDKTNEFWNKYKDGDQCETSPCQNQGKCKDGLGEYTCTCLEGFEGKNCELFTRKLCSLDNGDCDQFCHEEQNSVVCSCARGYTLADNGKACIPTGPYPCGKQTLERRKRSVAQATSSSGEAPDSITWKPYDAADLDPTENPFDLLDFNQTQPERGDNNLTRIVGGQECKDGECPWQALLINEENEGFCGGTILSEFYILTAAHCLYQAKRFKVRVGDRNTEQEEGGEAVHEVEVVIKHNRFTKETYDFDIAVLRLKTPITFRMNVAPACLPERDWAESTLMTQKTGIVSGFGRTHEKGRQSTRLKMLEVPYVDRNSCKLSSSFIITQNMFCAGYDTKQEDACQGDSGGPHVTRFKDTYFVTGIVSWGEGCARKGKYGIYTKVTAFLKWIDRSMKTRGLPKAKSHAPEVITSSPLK
Reported % of WT kcat/KM by item:

protein	% of WT kcat/KM / %
FIXa-Y155F/N260S/R318Y/R338E/T343R/R403E/E410N (protein) chain 1: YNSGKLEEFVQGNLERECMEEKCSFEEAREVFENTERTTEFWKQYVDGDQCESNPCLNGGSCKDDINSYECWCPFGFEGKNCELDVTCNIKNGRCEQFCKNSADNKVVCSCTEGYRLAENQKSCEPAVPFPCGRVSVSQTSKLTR chain 2: VVGGEDAKPGQFPWQVVLNGKVDAFCGGSIVNEKWIVTAAHCVETGVKITVVAGEHNIEETEHTEQKRNVIRIIPHHNYSAAINKYNHDIALLELDEPLVLNSYVTPICIADKEYTNIFLKFGSGYVSGWGRVFHKGYSALVLQYLRVPLVDRATCLESTKFRIYNNMFCAGFHEGGRDSCQGDSGGPHVTEVEGTSFLTGIISWGEECAMKGKYGIYTKVSEYVNWIKNKTKLT	335
FIXa-I251S/R318Y/R338E/E410N (protein) chain 1: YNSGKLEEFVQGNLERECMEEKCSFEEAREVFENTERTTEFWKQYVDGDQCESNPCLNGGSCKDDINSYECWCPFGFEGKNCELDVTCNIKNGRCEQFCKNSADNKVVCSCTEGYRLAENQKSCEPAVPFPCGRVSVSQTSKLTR chain 2: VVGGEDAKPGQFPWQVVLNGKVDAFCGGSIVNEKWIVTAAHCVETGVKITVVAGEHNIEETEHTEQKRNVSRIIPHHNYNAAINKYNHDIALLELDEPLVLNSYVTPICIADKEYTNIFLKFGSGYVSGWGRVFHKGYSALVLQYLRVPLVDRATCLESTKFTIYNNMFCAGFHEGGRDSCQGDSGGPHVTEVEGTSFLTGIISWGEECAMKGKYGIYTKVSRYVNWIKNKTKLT	851
FIXa-Y155F/K228N/K247N/N249S (protein) chain 1: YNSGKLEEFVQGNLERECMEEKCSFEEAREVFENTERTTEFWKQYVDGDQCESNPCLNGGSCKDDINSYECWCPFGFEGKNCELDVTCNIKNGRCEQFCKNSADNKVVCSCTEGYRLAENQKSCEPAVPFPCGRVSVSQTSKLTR chain 2: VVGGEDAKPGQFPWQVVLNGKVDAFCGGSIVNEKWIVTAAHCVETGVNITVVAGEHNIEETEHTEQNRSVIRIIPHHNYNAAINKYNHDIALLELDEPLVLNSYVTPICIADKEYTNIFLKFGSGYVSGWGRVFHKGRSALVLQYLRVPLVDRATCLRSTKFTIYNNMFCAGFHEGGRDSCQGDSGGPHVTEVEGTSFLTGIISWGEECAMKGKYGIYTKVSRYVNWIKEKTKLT	118
FIXa-Y155F/K228N/K247N/N249S/R318Y/R338E/T343R/R403E/E410N (protein) chain 1: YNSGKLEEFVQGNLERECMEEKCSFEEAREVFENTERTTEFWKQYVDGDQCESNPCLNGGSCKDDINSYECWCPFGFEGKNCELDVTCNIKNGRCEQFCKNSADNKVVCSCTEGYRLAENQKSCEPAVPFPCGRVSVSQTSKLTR chain 2: VVGGEDAKPGQFPWQVVLNGKVDAFCGGSIVNEKWIVTAAHCVETGVNITVVAGEHNIEETEHTEQNRSVIRIIPHHNYNAAINKYNHDIALLELDEPLVLNSYVTPICIADKEYTNIFLKFGSGYVSGWGRVFHKGYSALVLQYLRVPLVDRATCLESTKFRIYNNMFCAGFHEGGRDSCQGDSGGPHVTEVEGTSFLTGIISWGEECAMKGKYGIYTKVSEYVNWIKNKTKLT	646
